Reference for the values: PubChem BioAssay (NCI)

The following molecules are listed with their measured growth values.
# Tested on: SNB-19 CNS
# Test: NCI-60 one-dose screen, 48 h (100 = growth as untreated, 0 = no growth, -100 = all killed)
# Experimental setup: 10 µM
The panel holds about 83,000 compounds, 20% with a hit somewhere; the sample as a whole holds those more often.

Molecule	growth (%)
COC(=O)CC1CC1C1Cc2c(nc(N(C)S(C)(=O)=O)nc2C(C)C)-c2ccc(F)cc21 (configuration not stated)	91.2
CN1CCCN(Cc2ccc(C(=O)Nc3cccc(Nc4ccc5c(O)cccc5n4)c3)cc2C(F)(F)F)CC1	-81.2
C=C1CCC2C3(C)COC(c4c(F)cccc4F)OC3CCC2(C)C1C/C=C1/C(=O)OCC1O (configuration not stated)	-7.73
COC1CC(Cn2cc(COc3ccc4ccc(=O)oc4c3)nn2)C(OCc2ccccc2)C(OCc2ccccc2)C1OCc1ccccc1 (configuration not stated)	95.1
O=c1cc(-c2ccccc2)oc2cc(OCCCCNCc3ccccc3)cc(O)c12	67.2
O=C(c1ccc(Cl)cc1)C1[C@H](c2ccc(Br)cc2)[C@@H](c2ccccc2)NC12C(=O)Nc1ccccc12 (some centres not stated)	15.9
O=C(c1ccc(Cl)cc1)C1[C@H](c2ccccc2Br)[C@@H](c2ccccc2)NC12C(=O)Nc1ccc(Br)cc12 (some centres not stated)	36.2
O=C(c1ccc(-n2c(=O)[nH]c3ccccc3c2=O)cc1)N1CCOCC1	95.5
O=c1c2ccccc2nc(COc2ccccc2)n1/N=C/c1ccc(N2CCCC2)cc1	89.5
O=C(CNc1nc(-c2ccccc2)cs1)Nc1ccc([N+](=O)[O-])cc1	38.3
O=C(c1ccc(Cl)cc1)C1[C@H](c2ccc(Br)cc2)[C@@H](c2ccccc2)NC12C(=O)Nc1ccc(Cl)cc12 (some centres not stated)	-8.73
COc1cc(/C=N/NC(=O)c2ccc3nc(-c4ccc(Cl)cc4)[nH]c3c2)cc(OC)c1OC	-94.1
CNCc1cccc2c1OCCCCCC[C@@](C)(O)CC1(CC1)S(=O)(=O)c1ccc(cc1)-c1cnc(N)c(n1)C(=O)N2	-97.4
CO[C@@H]1CSSC1Cn1nc(-c2ccc(Oc3ccccc3)cc2)c2c(N)ncnc21 (some centres not stated)	69.1
COc1ccc(-c2cc(-c3cc(C(=O)c4ccc(Br)cc4)n4ccc(C)cc34)nc(N)c2C#N)cc1	91.3
COc1ccc(C2N(c3ccc(Br)cc3)N=C(C(C)=O)N2[C@H]2[C@H](OC(C)=O)O[C@H](COC(C)=O)[C@@H](OC(C)=O)[C@@H]2OC(C)=O)cc1 (some centres not stated)	78.2
Cc1cc(C(F)(F)F)ccc1C(=O)Nc1sc2c(c1C#N)CCC(=O)C2	-2.98

----------
# Test system: CCRF-CEM leukemia
# Test: NCI-60 one-dose screen, 48 h (100 = growth as untreated, 0 = no growth, -100 = all killed)
# Experimental setup: 10 µM
# Protocol: Growth inhibition of the CCRF-CEM human tumor cell line is measured as a screen for anti-cancer activity. Cells are grown in 96 well plates and exposed to the test compound for 48 hours. Compounds are tested at a single concentration, which is 10^-5 M for most compounds. The reported endpoint is percent growth (GI% or GIPRCNT), where numbers from 0 - 100% represent growth inhibition, and numbers from -100% - 0 represent cell death. For example, a value of 40 represents 60% growth inhibition. […]
About 83,000 compounds went through this panel and 20% of them were active in at least one assay; those are over-represented in the sample as a whole.
Rule: measured growth below 20% gets met; anything equal to or greater than 20% gets not met.

Compound	Label value
O=c1oc2ccc(-c3ccc(F)cc3F)cc2c(=O)n1-c1ccc(F)cc1	met
CC(=O)Nc1nc(-c2ccc(N3CCN(C)CC3)c(NS(=O)(=O)c3cccc4c(N(C)C)cccc34)c2)cs1	met
O=C(NO)c1ccc(CNc2nc(-c3ccccc3)c3ccccc3n2)cc1	met
COc1ccccc1NCc1ccc(CO)n1-c1ccc(C)cc1	not met
CN1CCN(c2ccc(Nc3nc(N4CCN(S(=O)(=O)c5ccc(Cl)cc5)CC4)c4sccc4n3)cc2)CC1	met
CCOC(=O)c1c(CSc2ccccc2)n(C)c2cc(CN(C)C)c(O)c(CN(C)C)c12	not met
CN(CCF)c1ccc(/C=C/C(=O)c2ccc(N)cc2O)cc1	not met
Cc1ccc(/C=C/C(=O)c2ccc(S(=O)(=O)NCCNc3nc(Nc4ccc(F)cc4)nc(N(C)C)n3)cc2)cc1	met
CCN1CCN(c2ccc(NC(=O)Nc3ccc(-c4cc(C(=O)NC)c5ncccc5n4)cc3)cc2C(F)(F)F)CC1	met
CCCCOc1ccc(Nc2nc3ccccc3nc2Nc2ccc(OCCCC)cc2)cc1	not met
COc1cnc2c(c1)C(=O)c1c-2n(CCCNC(C)C)c(=O)c2cc(OC)c(OC)cc12	met
O=C(N/N=C/c1ccc(-c2cccc([N+](=O)[O-])c2)o1)c1[nH]c2ccc(Br)cc2c1-c1ccccc1	met
CC(=O)Nc1ccc(-n2cnc3cc(-c4ccc(O)cc4)ccc32)cc1C	not met
CS(=O)(=O)Nc1ccc(-c2ccc3c(c2)ncn3-c2ccc(NC(=O)Nc3ccc(Br)cc3)cc2)cc1	met
Cn1cc(/C=N/Nc2ccnc3cc(Cl)ccc23)c2ccccc21	met
COc1cc(/C=C/C(=O)c2ccc(F)cc2)ccc1Oc1nc(Nc2ccc(F)cc2)nc(N(C)C)n1	met
Cc1ccc(C(C)C)cc1NC(=O)c1ccccc1O	not met
Cc1ccc(-c2cc(-c3cc4ccccc4nc3Cl)[nH]c(=S)n2)cc1	not met
C=C1CCC2C3(C)COC(c4c(F)cccc4F)OC3CCC2(C)C1C/C=C1/C(=O)OCC1O (stereo not given)	met
Cc1cc(=O)oc2cc(OCCCCOc3ccc(/C=C/C(=O)Nc4ccc(F)c(Cl)c4)cc3)ccc12	not met

----------
# Test system: HOP-92 NSCLC
# Test: NCI-60 one-dose screen, 48 h (100 = growth as untreated, 0 = no growth, -100 = all killed)
# Experimental setup: 10 µM
The panel holds about 83,000 compounds, 20% with a hit somewhere; the sample as a whole holds those more often.

Molecule	System	growth / %
O=C1Nc2ccc(Cl)cc2/C1=C/c1ccc(OCc2ccc(Br)cc2F)cc1	HOP-92 NSCLC	10.9
OCCCNc1oc(-c2ccccc2)nc1[P+](c1ccccc1)(c1ccccc1)c1ccccc1	HOP-92 NSCLC	-24.1
Cc1cc(=O)oc2cc(OCCCCOc3ccc(/C=C/C(=O)Nc4ccccc4[N+](=O)[O-])cc3)ccc12	HOP-92 NSCLC	130
N#Cc1c(Cl)nc(SCc2ccc(F)cc2)nc1-c1ccc(F)cc1	HOP-92 NSCLC	74.8
COC1CC(Cn2cc(COc3ccc4ccc(=O)oc4c3)nn2)C(OCc2ccccc2)C(OCc2ccccc2)C1OCc1ccccc1 (stereo not drawn)	HOP-92 NSCLC	80.3
O=C1NC(=NC23CC4CC(CC(C4)C2)C3)N/C1=C\c1ccc2ncoc2c1	HOP-92 NSCLC	15.3
CC1(C)[C@@H](NCO)CC[C@]2(C)[C@H]3C(=O)C=C4[C@@H]5C[C@](C)(CO)CC[C@]5(C)CC[C@@]4(C)[C@]3(C)CC[C@@H]12	HOP-92 NSCLC	52
COc1cc(-c2nc3cc(Cl)c(Cl)cc3[nH]2)ccc1OCc1nnc(-c2ccc(Br)cc2)o1	HOP-92 NSCLC	-39.6

----------
# Tested on: COLO 205 colon
# Test: NCI-60 one-dose screen, 48 h (100 = growth as untreated, 0 = no growth, -100 = all killed)
# Experimental setup: 10 µM
This is part of a sample that, as a whole, favours compounds with a hit. Of some 83,000 tested, about 20% had one in any assay. The source made the active and inactive calls. How the source made its calls: active means growth percent below 10; inactive means the rest.
The following compounds are listed with their measured growth values.

Compound	growth
O=C(CNc1nc(-c2ccccc2)cs1)Nc1cccc(Cl)c1	40.3% (inactive)
O=C(N=Nc1c(O)[nH]c2ccc(Br)cc12)c1ccc2nc(-c3ccccc3)[nH]c2c1	-67.5% (active)
O=c1oc2ccc(-c3ccc(F)cc3F)cc2c(=O)n1-c1ccc(F)c(Cl)c1	7.64% (active)
COc1ccc2[nH]c(=O)c(CSc3nccc(-c4ccc(Cl)cc4)n3)cc2c1	20.5% (inactive)
O=C1Nc2cc(-c3ccc(NC(=O)c4cccc([N+](=O)[O-])c4)cc3)ccc2/C1=C/c1ccc[nH]1	42.9% (inactive)
O=C(CNc1nc(-c2ccccc2)cs1)Nc1ccc(Cl)cc1[N+](=O)[O-]	-64.7% (active)
Cc1ccc(NC(=O)NCn2c(=O)[nH]c3ccccc3c2=O)cc1	115% (inactive)
CC(=O)NS(=O)(=O)c1ccc(NC(=O)CSC2=NC(c3ccccc3)C(C(C)=O)=C(C)N2)cc1 (stereo not drawn)	126% (inactive)
CSc1nc(-c2cccc(C)c2)c2cc(-c3ccccc3)n(C)c2n1	18.7% (inactive)
CC(=O)NNc1ccc2nnc(-c3ccc(Br)cc3)n2n1	109% (inactive)
N#Cc1c(NC(=O)c2ccc(C(O)(C(F)(F)F)C(F)(F)F)cc2)sc2c1CCC(=O)C2	-89.3% (active)
O=C1Nc2ccc(Cl)cc2/C1=C/c1ccc(OCc2ccc(Br)cc2F)cc1	51.6% (inactive)
COc1ccc(/C=C/C(=O)c2ccc(S(=O)(=O)NCCNc3nc(Nc4ccc(F)cc4)nc(N(C)C)n3)cc2)cc1	49.2% (inactive)
O=C(N/N=C/c1ccc(B(O)O)o1)c1[nH]c2ccc(Br)cc2c1-c1ccccc1	-43.2% (active)
COc1ccc2ncc(C#Cc3cncc(C(=O)Nc4ccc(CN5CCN(C)CC5)c(C(F)(F)F)c4)c3)n2n1	-63.8% (active)
CCNCCCn1c2c(c3cc(OC)c(OC)cc3c1=O)C(=O)c1cc3c(nc1-2)OCO3	25.7% (inactive)
Cc1cccc2cc(-c3cc(-c4ccccc4)nc(=S)[nH]3)c(Cl)nc12	123% (inactive)
CC(=O)Nc1nc(-c2ccc(N3CCN(C)CC3)c(NS(=O)(=O)c3ccc(C(F)(F)F)cc3)c2)cs1	36% (inactive)
CO[C@@H]1CSSC1Cn1nc(-c2ccc(Oc3ccccc3)cc2)c2c(N)ncnc21 (stereo partly drawn)	52% (inactive)
O=C(O)CCCCCCCCCCN1C(=O)/C(=C/c2cnc(-c3ccccc3)s2)SC1=S	141% (inactive)
Cc1ccc(C(=O)CSc2nnc(-c3c[nH]c4ccccc34)n2-c2ccccc2)cc1	75% (inactive)
COc1ccc(N2N=C(c3ccc4c(c3)OCCO4)CC2c2cccc(NC(=O)CCCNS(=O)(=O)c3ccc(F)cc3)c2)cc1 (stereo not drawn)	84% (inactive)
O=C1Nc2cc(Cl)ccc2/C1=C/c1cccc(OCc2ccc(Br)cc2F)c1	3.13% (active)
COc1ccc(/C(C)=N/N=C2C(=O)N(C)c3ccc(Br)cc32)cc1S(N)(=O)=O	102% (inactive)
Clc1ccc2c(N/N=C/c3c[nH]c4ccc(Br)cc34)ccnc2c1	-44% (active)
CC(C)(C)c1ccc(NCc2cn(-c3ccc(C(=O)O)cc3)nc2-c2ccc(C#N)cc2)cc1	34.8% (inactive)
COc1ccc(-c2cc(-c3cc(C(=O)c4ccc(Br)cc4)n4ccc(C)cc34)nc(N)c2C#N)cc1	67.2% (inactive)
O=C(CSc1ccc(-c2ccc(Cl)cc2)nn1)Nc1ccc(Cl)c(C(F)(F)F)c1	74.8% (inactive)
OCCNc1oc(-c2ccccc2)nc1[P+](c1ccccc1)(c1ccccc1)c1ccccc1	-52.8% (active)
Cc1ccc(-c2ccc(SCC(=O)Nc3ccc(S(N)(=O)=O)cc3Br)nn2)cc1	33.1% (inactive)
COc1ccc(-c2ccc(SCC(=O)Nc3ccc(C#N)cc3)nn2)cc1	127% (inactive)
CN1C(=O)/C(=C/c2ccc3ncsc3c2)NC1=NC12CC3CC(CC(O)(C3)C1)C2	-37.9% (active)
O=C(CSc1nnc(-c2ccc3nc(-c4ccccc4)[nH]c3c2)o1)Nc1ccc(Cl)cc1	73.2% (inactive)
CCOc1ccc(/C=N/NC(=O)Cn2nc(Cc3ccccc3)c3onc(C)c3c2=O)cc1	29.2% (inactive)
COc1cc2c3c(n(CCCNCCO)c(=O)c2cc1OC)-c1nc2c(cc1C3=O)OCO2	2.13% (active)
CCCCOc1ccc(Nc2nc3ccccc3nc2Nc2ccc(OCCCC)cc2)cc1	116% (inactive)
N#Cc1c(NC(=O)c2ccc(C(F)(F)F)cc2)sc2c1CCC(=O)C2	-95.3% (active)
Cc1nc(Nc2nc(C)c3ccc(OCCN4CCOCC4)cc3n2)[nH]c(=O)c1C	0.287% (active)
